# System: BT-549
# test_name: normalised viability (% of control), CellTiter-Blue; higher = more viable cells (about 100 = DMSO control)
# condition_details: 10000 nM; incubation time: 72 h
result_type: normalised viability

Here's what some known entries look like.
COCC1(CO)C(=O)C2CCN1CC2 (stereo not drawn) ... 109%
COCC[n+]1c2c(n(Cc3cnccn3)c1C)C(=O)c1ccccc1C2=O ... -0.61%

Data request: What value of normalised viability has been reported for the following compound? CC(C)C[C@@H](C(=O)N[C@H](C(=O)OC1CCCC1)c1ccccc1)[C@H](O)C(=O)NO
Data returned: 39.1%

----------
# System: CAL-51
# test_name: drug sensitivity score (DSS), CellTiter-Blue viability (DSS (AUC-based score)); higher = stronger viability inhibition; extreme values may be limits of the assay
# condition_details: incubation time: 72 h
The label depends only on drug sensitivity score: Condition met if it is at least 8, Condition not met if it is smaller.

O=C(Nc1ccncc1)C(=O)c1cn(Cc2ccc(Cl)cc2)c2ccccc12 [Indibulin] ... Condition met
c1ccc2c(CCNc3ccc(Nc4ccncc4)cc3)c[nH]c2c1 [Serdemetan] ... Condition not met
O=P1(N(CCCl)CCCl)NCCCO1 (configuration not stated) [Cyclophosphamide] ... Condition not met

Data request: # bool: drug sensitivity score of Cc1cc(Nc2cc(CN3CCOCC3)c3nc(C)c(Cc4ccc(Cl)cc4F)n3n2)n[nH]1 >= 8
Data returned: Condition not met

Data request: # bool: drug sensitivity score of COc1cc2ncnc(Nc3ccc(F)c(Cl)c3)c2cc1OCCCN1CCOCC1 [Gefitinib] >= 8
Data returned: Condition not met

----------
# System: MDA-MB-453
# test_name: normalised viability (% of control), CellTiter-Blue; higher = more viable cells (about 100 = DMSO control)
# condition_details: incubation time: 72 h
result_type: normalised viability (%)
# output: bare number, implied unit %

O=C(Nc1cccnc1)N1CCC(Cc2cccc(Oc3ccc(C(F)(F)F)cn3)c2)CC1 [PF-3845] (1000 nM) ... 86
CO[C@H]1C[C@@H]2CC[C@@H](C)[C@@](O)(O2)C(=O)C(=O)N2CCCC[C@H]2C(=O)O[C@H]([C@H](C)C[C@@H]2CC[C@@H](OP(C)(C)=O)[C@H](OC)C2)CC(=O)[C@H](C)/C=C(\C)[C@@H](O)[C@@H](OC)C(=O)[C@H](C)C[C@H](C)/C=C/C=C/C=C/1C [Ridaforolimus] (100 nM) ... 24.1

Switching to the query record.
Data request: What reported normalised viability corresponds to COCC[n+]1c2c(n(Cc3cnccn3)c1C)C(=O)c1ccccc1C2=O [YM155] (1000 nM) on MDA-MB-453?
Data returned: 7.19

----------
# System: BT-549
# test_name: normalised viability (% of control), CellTiter-Blue; higher = more viable cells (about 100 = DMSO control)
# condition_details: 100 nM; incubation time: 72 h
result_type: normalised viability (%)
# output: bare number, implied unit %

Here's what some known entries look like.
COc1cc(OC2CCN(C)CC2)ccc1Nc1ncc2c(n1)n(C1CCCC1)c(=O)n2C ... 85
COCC[n+]1c2c(n(Cc3cnccn3)c1C)C(=O)c1ccccc1C2=O ... 34
C=C1C[C@@H]2[C@H](CC[C@]3(C)C(=O)CC[C@@H]23)[C@@]2(C)C=CC(=O)C=C12 ... 106
NC(=O)c1ccc(I)c([N+](=O)[O-])c1 ... 106
c1ccc2c(CCNc3ccc(Nc4ccncc4)cc3)c[nH]c2c1 ... 113

Data request: What value of normalised viability has been reported for the following compound? CN(C)CCOc1ccc(/C(=C(/CCCl)c2ccccc2)c2ccccc2)cc1
Data returned: 109

Data request: What value of normalised viability has been reported for the following compound? Cc1cc(Nc2cc(CN3CCOCC3)c3nc(C)c(Cc4ccc(Cl)cc4F)n3n2)n[nH]1
Data returned: 93.5
